- System: KYSE-520
- method: CCK-8 cell viability assay
- Assay type: cell-based
- measurement.setup: Homo sapiens; KYSE-520 cells, CCK-8, 72 hours; read-out: IC50, proliferation inhibition
Readings of IC50 for the listed compounds
property.label: IC50 (nM)

{"compound": "Cc1cc(Nc2ncc(Cl)c(Nc3ccccc3S(=O)(=O)C(C)C)n2)c(OC(C)C)cc1C1=CCN(C2CCOCC2)CC1 [Compound 5]", "scale.unit": "nM", "value": 825}
{"compound": "C=CC(=O)N1CCC[C@@H](n2nc(-c3ccc(Oc4ccccc4)cc3)c3c(N)ncnc32)C1 [Ibrutinib]", "scale.unit": "nM", "value": 245}
